- Test system: OVCAR-5 ovarian
- Protocol Text: NCI-60 one-dose screen, 48 h (100 = growth as untreated, 0 = no growth, -100 = all killed)
- Reported Conditions: 10 µM
The panel holds about 83,000 compounds, 20% with a hit somewhere; the sample as a whole holds those more often.
Measured Endpoint: growth (%)
Expressed in %, but write only the number.

N#CCc1ccc([N+](=O)[O-])cc1 : 119
Clc1ccc(-c2nnc(-c3cccc4ccccc34)o2)cc1 : 93.3
CCC/C=C(\C)C(C)(C#N)C(=O)OCC (configuration not stated) : 110
O=[N+]([O-])c1ccc(Cl)c(S(=O)(=O)O)c1 : 105
CN(C)CCC(=O)c1ccc(O)cc1 : 115

Incoming: Return growth for the following compound: `O=C(O)c1ccccc1NCc1ccco1`
Outgoing: 93.1

Incoming: Return growth for the following compound: CC1Cc2ccccc2O1 (configuration not stated)
Outgoing: 110

Incoming: Return growth for the following compound: `O=C1N(C[P+](c2ccccc2)(c2ccccc2)c2ccccc2)CCCN1C[P+](c1ccccc1)(c1ccccc1)c1ccccc1`
Outgoing: 110
